Just for reference, ChEMBL document CHEMBL4689842 is where these values come from.

- Tested on: Fibroblast
- experimentDescription: Multiplex assay against human fibroblast
- Type: toxicity, cell-based
- conditionsUsed: 48 h, 10 µM, compound concentration 10 uM, replicate 1
parameter: Population Mitotic Cells (%)
Respond with the bare value in %.

Check out these entries, answers already filled in.
compound=CCc1cc2c(cc1CC)CC(NC[C@H](O)c1ccc(O)c3[nH]c(=O)ccc13)C2 measvalue=29
compound=CNc1oc(-c2cccc3ccccc23)nc1C#N measvalue=14
compound=Nc1nc2c(c(N3CCNCC3)n1)CCC1=C2[C@@H]2CCCC[C@@H]2O1 measvalue=58
compound=Nc1ccc(C(=O)Nc2cccc(-c3nc(N4CCOCC4)c4oc5ncccc5c4n3)c2)cn1 measvalue=48
compound=C1=N/C2=N/c3ccc(OCCN4CCCC4)c(c3)COC/C=C\COCc3cccc(c3)C(=C1)N2 measvalue=12
compound=Cl.Cl.Nc1ncnc2c1c(-c1cccc(OCc3ccccc3)c1)cn2[C@H]1C[C@@H](CN2CCC2)C1 measvalue=5
compound="CCn1c(-c2nonc2N)nc2cnc(Oc3cccc(NC(=O)c4ccc(OCCN5CCOCC5)cc4)c3)cc21 [GSK-269962A]" measvalue=50
compound=CC(C)N1CCC(C)(C)c2cc(C#Cc3ccc(C(=O)O)cc3)ccc21 measvalue=40

Request: # Population Mitotic Cells (%) lookup, item Cc1cc2c(cc1N1C(=O)c3cccc4c(CCCO)ccc(c34)C1=O)n(C)c(=O)n2C
Result: 10

Request: # Population Mitotic Cells (%) lookup, item COc1ccc(NS(=O)(=O)c2sc3ccc(Cl)cc3c2C)cc1N1CCNCC1.Cl
Result: 13
